- protocol.details: viability of HCT116 without oncogenic beta-catenin – human colon tumor cells, pilot screen (AID 823);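 also: 0% = wells killed by 20 µM Hyamine and 100% = untreated DMSO cell wells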
- condition.parameters: HCT116 beta-catenin knockout viability, CellTiter-Glo, 60 h; at 10 µM; hits give low values
Records with an inconclusive call do not appear.
measured.attribute: viability (%)
# value in %; strip the unit string

Field: example entries. Status: answers known.
[
  {
    "compound": "CCOc1ccc(CCN2C(=O)C3C4C=CC(C4)C3C2=O)cc1OCC (stereo unspecified)",
    "unit.text": "%",
    "viability": 102
  },
  {
    "compound": "O=C(CCn1c(=S)[nH]c2ccccc2c1=O)N1CCOCC1",
    "unit.text": "%",
    "viability": 105
  },
  {
    "compound": "COc1ccc(-n2c(SCC(=O)Nc3ccc4c(c3)OCO4)nc3c(c2=O)SCC3)cc1",
    "unit.text": "%",
    "viability": 98.2
  },
  {
    "compound": "Cc1ccc(OCC(=O)NCc2ccccn2)c(Br)c1",
    "unit.text": "%",
    "viability": 97.8
  },
  {
    "compound": "Clc1ccc(SCCCCn2ccnc2)cc1",
    "unit.text": "%",
    "viability": 64.8
  },
  {
    "compound": "Cc1c(NS(=O)(=O)c2ccccc2)cc(Cl)c(O)c1C",
    "unit.text": "%",
    "viability": 90.9
  },
  {
    "compound": "CC(=O)c1cccc(NC(=O)Nc2cc3sccc3n2C)c1",
    "unit.text": "%",
    "viability": 98.2
  },
  {
    "compound": "CCOc1ccc(NS(=O)(=O)c2cc(Cl)ccc2OC)cc1",
    "unit.text": "%",
    "viability": 75.1
  },
  {
    "compound": "Cc1oc(-c2cccc(Cl)c2)nc1CN1CCC(C(=O)NCCCN2CCCC2=O)CC1",
    "unit.text": "%",
    "viability": 85.8
  },
  {
    "compound": "CC12CN3CC(C)(CN(C1)C3c1ccc(Cl)cc1Cl)C2=O (stereo unspecified)",
    "unit.text": "%",
    "viability": 93.4
  }
]

Please turn your attention to the following entry.
Input line: If you can, please state the reported viability value of O=C(CN1C(=O)NC(Cc2ccccc2)C1=O)Nc1ccccc1 (stereo unspecified) .
Output line: 97.8

====

- protocol.details: doxorubicin toxicity protection in MRP-1 cells – H69AR cells, CellTiter-Glo, duplicate, MRP-1 activator project, pilot screen (AID 807);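 also: compound pretreatment 18-22 h then 72 h combined with doxorubicin; 0% = doxorubicin alone and 100% = vehicle without doxorubicin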
- condition.parameters: H69AR viability with doxorubicin, CellTiter-Glo luminescence; at 10 µM; hits give high values
measured.attribute: viability increase (%)
# value in %; strip the unit string

[
  {
    "compound": "CCn1c(=O)c2cc(C(=O)NCCN3CCOCC3)sc2c2ccccc21",
    "viability increase [%]": -4.73
  }
]

Input line: If you can, please state the reported viability increase value of CCOc1ccccc1C1CC(c2ccc(Br)cc2)Nc2nc(N)nn21 (stereo unspecified) .
Output line: -2.25

Input line: If you can, please state the reported viability increase value of Cc1ccc(-n2nc(C)c3c2OC(N)=C(C#N)C3c2cccs2)cc1 (stereo unspecified) .
Output line: -3.41

Input line: If you can, please state the reported viability increase value of "CCOc1ccccc1N1C(=O)c2cccnc2C1=O" .
Output line: -1.2
